# System: MS2 coat protein
# MEASUREMENT_NOTES: apparent KD of MS2 coat protein; designed switch direction (-1 OFF switch, 1 ON switch): -1; higher = weaker reporter binding
# EXPERIMENTAL_CONTEXT: input ligand: none
Each entry below lists one item and its recorded apparent KD of MS2 coat protein value.
Write down the numeric answer in µM and omit the unit.

Below, each entry is followed by its recorded apparent KD of MS2 coat protein result.
CUCCGGCGUGUAGGAUAUGGUUCCGUUUCGGUUCCAGAAGGACAUGAGGAUCACCCAUGUACCUGUCGUCGGUCGUCACCGGGC [salish99_ExNG1_r04_216] (Eterna round: R96, puzzle: Exclusion NG 1) = 0.0164
AUUAUAAGGAGAGGAUAUCUAAUAAUAUAUAUUAGAGAAGGCUCACAUGAGGAUCACCCAUGUUUUUUUUUUUUUUUUUUUUUU [Default title] (Eterna round: R96, puzzle: Exclusion NG 1) = 0.0717
GUGUCUCGUGUAGGAUAUGCGCGAGGUCUUUGUGCAGAAGGACAUGAGGAUCACCCAUGUAUUCCGCGGCGCGGGCAUGUGUCC [-29/-27 Kcal and A 18%] (Eterna round: R96, puzzle: Exclusion NG 1) = 0.0525
AUGGUGUCAGGAUAUCUCAAAGCACAGAAUGAGCGGCUACGGGAGAAGGGACAUGAGGAUCACCCAUGUACUCU [EX4 B.29] (Eterna round: R97, puzzle: Exclusion 4) = 0.0186
AAAUAGUCAGGAUAUACAUGAGGAUCACCCAUGUAAACUUUUAGUUUAAUUUGAAUGUGUAGAAGGGACAUAAA [Ex3 #50] (Eterna round: R97, puzzle: Exclusion 3) = 0.0293

Challenge: Request the reported apparent KD of MS2 coat protein associated with GCGUGGCGUAAGGAUAUCCAUACGGUAUAACCGGGAGAAGGUACGACAUGAGGAUCACCCAUGUGGCCUGGAAA [Sorimaat] (Eterna round: R97, puzzle: Exclusion 6)
Response given: 0.0222

Challenge: Now consider AAAUUAGCAAGUAGGUCCGACAUGAGGAUCACCCAUGUAAGCUAAUCUUACGCUGCAUGAGAGUGCGCUCGUCUUAA [Sensor-V1 #19] (Eterna round: R97, puzzle: Sensor, turn-off variant 1) and answer again.
Response given: 0.515

Challenge: Next entry: UAAUUGAUUAAUAAAUAAUACAUGAGGAUCACCCAUGUAGAUCCUACAUACCAUUUAAGUAGCUCGUCUUAUUAUUA [Sensor-V1 #62] (Eterna round: R97, puzzle: Sensor, turn-off variant 1)
Response given: 0.213

Challenge: And then UGCUACGGAGGAUAUACAUGAGGAUCACCCAUGUGAUAGAUUAUCGCGAGAGCGUAAUGUAGAAGGCCGUAGCU [jl-ex3-4.12 jl mod] (Eterna round: R97, puzzle: Exclusion 3) , what is it?
Response given: 0.056

Challenge: Consider next the sequence UCUUAUUGCAAGGAUAUGCUUUUUAUUUCUUUUGCAGAAGGUGCAACAUGAGGAUCACCCAUGUUUCCGGGCAU [JR_E6_Sub035] (Eterna round: R96, puzzle: Exclusion 6) in the same way.
Response given: 0.0215

---

# System: MS2 coat protein
# MEASUREMENT_NOTES: apparent KD of MS2 coat protein; designed switch direction (-1 OFF switch, 1 ON switch): -1; higher = weaker reporter binding
# EXPERIMENTAL_CONTEXT: Eterna round: R95; input ligand: microRNA oligo, concentration not stated
TEST_READOUT: apparent KD of MS2 coat protein (µM)
Give just the numeric value; µM need not be written.

Record excerpt, results attached:
CUGAGCAGACGGAGAUCCAACAUGAGGAUCACCCAUGUCUCAAAAGCUUUUUGCUCGCCUUAUCCUCCUCUGUUCUC [Ererququce] (puzzle: Sensor v3, turn-off variant 1) = 0.208
GUAUCGUGAGGAUAUCAUGAUUGACUUUUAUUUUGUCAGCGUGAGAAGGCACAUGAGGAUCACCCAUGUGAUUA [Ex4 - 3 - 8] (puzzle: Exclusion 4) = 0.0232
GGUCCACGAGGAUAUCGAUUUUAGUACAUGAGGAUCACCCAUGUUGUCCAGGUUUCGAUUCGAGAAGGCGUGGGCC [LRO-Ex5-03] (puzzle: Exclusion 5) = 0.0203
GUGUACAGAGGAUAUACAAUAGGAGUUACGAAAGUAACUUCACAUGAGGAUCACCCAUGUAGAAGGCUGUACAC [Dot plot directed v8] (puzzle: Exclusion 2) = 0.0177
AAUAACAGAGGAUAUACUGUUUUAUGUGUUUGUUGUUUUGAACAUGAGGAUCACCCAUGUAGAAGGCUGAAUGA [JMF 68] (puzzle: Exclusion 2) = 0.0242
ACCGUGCAAGGAUAUCGUUACCUCGACAUGAGGAUCACCCAUGUGGCCAUAUAGCGAUUGCGAGAAGGUGCGGGUA [Aatveti] (puzzle: Exclusion 5) = 0.0852
UCUUAUUGCAAGGAUAUGCUUUUUAUUUCUUUUGCAGAAGGUGCAACAUGAGGAUCACCCAUGUUUCCGGGCAU [JR_E6_Sub035] (puzzle: Exclusion 6) = 0.0168
GCGCACUAAGUGAGGAUAUCGAUUUUUUUUAGGAUCGAGAAGGCACAUGAGGAUCACCCAUGUUUGACGUGCGC [JR_BMOE4_Sub098] (puzzle: Brourd's mod of Exclusion 4) = 0.015
GCAGGUUAAGUCAGGAUAUACCUAUGGAUACAUAGGUAGAAGGGACAUGAGGAUCACCCAUGUGCCUCACCUGC [Fiskers BMX 4 - 19] (puzzle: Brourd's mod of Exclusion 4) = 0.0168
GAUUAUGCGAGCUUUAGGGACAUGAGGAUCACCCAUGUUCGUCUUAUUGGUCUAAAUGCACUGACAUACCUAAAUCU [JMF 74] (puzzle: Sensor v3, turn-off variant 1) = 0.0198

Challenge: May I ask what apparent KD of MS2 coat protein has been recorded for CCGAGGUAGCGGUCCUAUGACAUGAGGAUCACCCAUGUACCUCGCUACGAGCUUUUUGCUCGUCUUAUAAUUCUCGG [JL Atriat mod 1] (puzzle: Sensor v3, turn-off variant 1) ?
Response given: 0.229

Challenge: // next record AACUAGUGAGGAUAUACAUGAGGAUCACCCAUGUACGUCGUGGGUAGAAAACAAGUCAGUAGAAGGUGCUAGAC [Ininor] (puzzle: Exclusion 3)
Response given: 0.174

Challenge: Try this sequence too: GAAAAGGUAGGAUAUACGAAAAAAAAGGGUAGAAAAAAAACACAUGAGGAUCACCCAUGUAGAAGGACCAAAAU [salish99_ex2_r3_051] (puzzle: Exclusion 2)
Response given: 0.0292

Challenge: Also ACGAAAGCAAACAGGUGAAACAUGAGGAUCACCCAUGUCCUCAUUUGCUCGUCUUAUAAGCUAUGCGAAAGCAUAGC [Mat - Sensor v3 - turn-off var 1 - Eli Mod - D53] (puzzle: Sensor v3, turn-off variant 1) ?
Response given: 1.27

Challenge: For CCAGGCUGUGUGAGGAUAUGCUGGUCCUUGGAUCAGCAGAAGGCACAUGAGGAUCACCCAUGUGAAGAGCUUGG [JL bmx4 3.23] (puzzle: Brourd's mod of Exclusion 4) then?
Response given: 0.0156

Challenge: Okay, and UUUUAACAUGAGGAUCACCCAUGUGAGGAUAUCGAAAUUUAUAUUUAUAUUAAUUUAACGAGAAGGCACAUUUU [JMF 87] (puzzle: Exclusion 1) ?
Response given: 0.0844

Challenge: Quick one: GCAUGGAAAGUGAGGAUAUACCACUGGAUACAGUGGUAGAAGGCACAUGAGGAUCACCCAUGUCUCUACCAUGC [Fiskers BMX 4 - 41] (puzzle: Brourd's mod of Exclusion 4)
Response given: 0.0134

Challenge: Next record, please: GGAUCGAAUGUGAGGAUAUACCACUGGAUACAGUGGUAGAAGGCACAUGAGGAUCACCCAUGUCUCUACGAUCC [Fiskers BMX 4 - 43] (puzzle: Brourd's mod of Exclusion 4)
Response given: 0.021

Challenge: Proceed to AAUAAGGGAGGAUAUGCGGAACGGUUUGUUCUCAGUGAGGCACAUGAGGAUCACCCAUGUAGAAGGCCCGGCAA [Orinar] (puzzle: Exclusion 2)
Response given: 0.013

Challenge: Try this sequence next: GAGGCAUGCCUAGGUCCACACAUGAGGAUCACCCAUGUAAUGACAGGCUUUUUACUCGUUUUAUCGCUAUCGCGUUC [Enaor] (puzzle: Sensor v3, turn-off variant 1)
Response given: 0.0207

Challenge: Now the sequence CCAGGCGUCUUUGCUCGUCUUAUUUGGAGAGGACUGAUAACAUGAGGAUCACCCAUGUGUGUGGGAGCGUUGCAGUG [JR_SV3TOV2_Sub020] (puzzle: Sensor v3, turn-off variant 2)
Response given: 0.161
